Attribution: ChEMBL document CHEMBL1201862

# System: SNB-75
# TEST_PROTOCOL: NCI tumour cell line growth inhibition, 48 h
Calls of active or inactive are those of the source. No stated cut-off is given here; in the data, active = GI50 up to about 1.1 µM and inactive = higher.
MEASURE_NAME: GI50

Completed entries (count: 3):
COc1cccc(C=O)c1C(=O)c1cc(O)ccc1O ... > 95.3 µM (inactive)
O=C1N/C(=N\N=C\c2ccccc2)C2(CCCCC2)O1 ... 20.5 µM (inactive)
C1=N\CCNCC/N=C\c2ccc(cc2)OCc2cccc(n2)COc2ccc/1cc2 ... 23 µM (inactive)

So for COc1cc2c(cc1OC)/C(=C\c1ccccc1N)C(=O)OC2 , the logged GI50 turned out to be 10.3 µM (inactive)

So for COc1ccccc1C1C(Cl)C(=O)N1n1cnc2ccccc2c1=O (stereo unspecified) , the logged GI50 turned out to be 40.6 µM (inactive)

So for O=C(/C=C/C=C/c1ccccc1)CCc1ccccc1 , the logged GI50 turned out to be > 100 µM (inactive)

So for COc1ccc(N[C@H]([C@@H](c2ccccc2)[S+]([O-])c2ccc(C)cc2)C(F)(F)F)cc1 (stereo partly specified) , the logged GI50 turned out to be 24.8 µM (inactive)

So for Nc1ccc(C(=O)N/C(=C\c2cccc([N+](=O)[O-])c2)c2nc3ccccc3[nH]2)cc1 , the logged GI50 turned out to be 23.3 µM (inactive)

So for Cn1c(=O)cc(Nc2ccc(N)cc2)[nH]c1=O , the logged GI50 turned out to be > 100 µM (inactive)

So for CC(NC(=O)C(C)NC(=O)C(N)CCP(C)(=O)O)C(=O)O (stereo unspecified) , the logged GI50 turned out to be > 100 µM (inactive)

So for Clc1ccc(C(c2ccc(Cl)cc2)c2ccccn2)cc1 , the logged GI50 turned out to be 44.9 µM (inactive)

So for C=C1C(=O)c2cc3c(cc2C(c2cc(OC)c(OC)c(OC)c2)[C@@H]1C(=O)O)OCO3 (stereo partly specified) , the logged GI50 turned out to be 20.5 µM (inactive)

So for Oc1ccc(CCNCc2cc3c(cc2Br)OCO3)cc1 , the logged GI50 turned out to be 18.4 µM (inactive)

So for CC12CCC(=O)N1[C@@H](c1ccccc1)[C@@H](c1ccccc1)O2 (stereo partly specified) , the logged GI50 turned out to be > 100 µM (inactive)

So for O=C(/C=C/c1ccc(OCc2cccc(Cl)c2)cc1)NO , the logged GI50 turned out to be 20.4 µM (inactive)

So for Cc1ccc(/C=C2\CCS(=O)(=O)c3ccccc3C2=O)cc1 , the logged GI50 turned out to be 16.7 µM (inactive)

So for O=C(NC(Cc1ccc(I)cc1)C(=O)O)c1ccc(I)cc1 (stereo unspecified) , the logged GI50 turned out to be 21.2 µM (inactive)

So for COc1ccc(NC(=O)CC(=O)N2N=C(c3ccccc3)C(/N=N/c3ccc(S(=O)(=O)CCOS(=O)(=O)O)cc3)C2=O)cc1 (stereo unspecified) , the logged GI50 turned out to be > 100 µM (inactive)

So for CO/N=C(\C(=O)[N-]n1cn[n+](CC(=O)OC(C)(C)C)c1)c1csc(NC(c2ccccc2)(c2ccccc2)c2ccccc2)n1 , the logged GI50 turned out to be > 10 µM (inactive)

So for N#CSc1[nH]cnc1C(N)=O , the logged GI50 turned out to be > 100 µM (inactive)

So for O=C1C([N-]S(=O)(=O)c2ccccc2)=C([n+]2ccc(Cc3ccccc3)cc2)C(=O)c2ccccc21 , the logged GI50 turned out to be 1.31 µM (inactive)
